This collection of values is drawn from PubChem BioAssay (NCI).

system: SK-OV-3 ovarian; test: NCI tumour cell line growth inhibition, 48 h; in the data active = GI50 below about 0.43 µM; inactive = the rest
The reply should name one outcome from active, inactive

compound	classLabel
Cc1cc2c(C#N)n3c(c2cc1C)C(=O)C(c1ccccc1)Oc1ccccc1-3 (centres undefined)	inactive
NCCN.O=N[O-].O=N[O-].O=N[O-].O=N[O-].[Co+3].[K+]	inactive
Oc1ccc(-c2nc(-c3ccc4oc5ccc(-c6[nH]c(-c7ccc(O)cc7)nc6-c6ccccc6)cc5c4c3)c(-c3ccccc3)[nH]2)cc1	inactive
COC(=O)c1cc2c([nH]c3ccccc32)c(-c2nc3cc(N(S(=O)(=O)c4ccc(C)cc4)S(=O)(=O)c4ccc(C)cc4)c(OC)cc3cc2CO)n1	inactive

stdin: Tell me the assay call for CN1CCN(Cc2ccc(NC(=O)c3cncc(C#Cc4c(N)ncc5ccc(F)cc45)c3)cc2C(F)(F)F)CC1 please.
stdout: inactive

stdin: Which outcome did this test record for the compound COc1ccc(/C=C2\CN(Cc3cn(CCCNc4ccnc5cc(Cl)ccc45)nn3)C/C(=C\c3ccc(OC)cc3)C2=O)cc1 ?
stdout: inactive

stdin: Hi, do you know how COc1ccc(/C(C)=C(\c2ccc(Cl)cc2)c2ccc(OCCN3CCCCC3)cc2)cc1F came out in this test?
stdout: inactive

stdin: What was the test verdict on CCS(=O)(=O)Nc1ccc(Oc2ccc(F)cc2F)c(-c2cn(C)c(=O)c3[nH]ccc23)c1 ?
stdout: active

stdin: // outcome(item) with item = N#CC1=C(N)Oc2c(ccc3ccccc23)C1c1ccccc1Cl (centres undefined)
stdout: inactive

stdin: Which result was noted for this compound in the test: O=C(/C=C/CN1CCCCC1)Nc1cc2c(Nc3ccc(F)c(Cl)c3F)ncnc2cc1OCCOC(F)F
stdout: active

stdin: Hello, I am checking results. What call was entered for COc1ccc(/C=C2\CC(C)CC3C2=NN(C(C)=O)C3c2ccc(OC)c(OC)c2)cc1OC (centres undefined) ?
stdout: inactive

stdin: Assay result, entry Cn1cc(C2=C(c3cn(CCCSC(=N)N)c4ccccc34)C(=O)NC2=O)c2ccccc21 — outcome?
stdout: inactive

stdin: Record request — test call for Cn1c([N+](=O)[O-])cnc1/C=C1\Oc2ccc(Cl)cc2C1=O
stdout: inactive

stdin: Hey, what did the test say about COc1ccc(C(=O)CC(Cl)=C(Cl)Cl)cc1 ?
stdout: inactive

stdin: Which outcome was entered for the compound N#Cc1ccccc1C#C/C=C\C#Cc1cnccn1 in this test?
stdout: inactive

stdin: Test call for this compound, please: CC(=O)OC1C(OC/C2=C/C3[C@@H](C(C)C)CC=C(C)[C@@H]3CC(OC(=O)/C=C/c3cn(C)cn3)[C@]3(C)C=C[C@@]2(O)O3)OCC(O)C1O (some centres undefined)
stdout: active

stdin: Which outcome did this test record for the compound COc1cc2c(c(OC)c1OC)-c1c(c3ccc([N+](=O)[O-])cc3c(=O)n1CCCN=[N+]=[N-])C2=O ?
stdout: inactive

stdin: Called result for COc1ccc(-c2nccn2-c2cc(OC)c(OC)c(OC)c2)cc1
stdout: inactive

stdin: Hi team, can someone confirm the assay call for Cc1nn(-c2ccccc2)c2ncc3c(c12)C(=O)N(Cc1ccccc1)C3=O ?
stdout: inactive
